ASSAY TARGET: NONO (Homo sapiens)
Sequence: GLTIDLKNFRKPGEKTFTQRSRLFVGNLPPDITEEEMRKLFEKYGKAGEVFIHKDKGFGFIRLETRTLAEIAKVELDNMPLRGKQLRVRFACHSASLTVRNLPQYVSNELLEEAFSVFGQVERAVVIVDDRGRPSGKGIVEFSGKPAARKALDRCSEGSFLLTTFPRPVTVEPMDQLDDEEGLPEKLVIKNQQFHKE
ASSAY NOTES: protein domain microarray probed with biotinylated miRNA; Domain array: 20 mM Tris-HCl pH 7.4, 200 mM KCl, 0.2 mM EDTA, 0.05% NP40, 2 ug/ul heparin, overnight 4 C. ORF array: PBS pH 7.0 with RNase inhibitor, 100 ng RNA; high values mean tight binding
PROTOCOL CONDITIONS: ssRNA
Here the recorded binding signal is given for each entry.
Lab book: enter the figure in fluorescence intensity, no units written.

Known results for sequences:
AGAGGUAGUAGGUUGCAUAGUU: 26.1
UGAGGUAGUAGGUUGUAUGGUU: 41.2

binding signal in this record for `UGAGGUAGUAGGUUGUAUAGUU` : 20.7

Looking up `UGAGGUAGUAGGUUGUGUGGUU` , I see its binding signal listed as 62.6

---

ASSAY TARGET: RBMX (Homo sapiens, UniProt P38159)
Sequence (P38159 1-110): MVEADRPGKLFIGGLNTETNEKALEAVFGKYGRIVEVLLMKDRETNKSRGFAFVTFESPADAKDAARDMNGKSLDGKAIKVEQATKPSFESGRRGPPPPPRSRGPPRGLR
ASSAY NOTES: protein domain microarray probed with biotinylated miRNA; Domain array: 20 mM Tris-HCl pH 7.4, 200 mM KCl, 0.2 mM EDTA, 0.05% NP40, 2 ug/ul heparin, overnight 4 C. ORF array: PBS pH 7.0 with RNase inhibitor, 100 ng RNA; high values mean tight binding
PROTOCOL CONDITIONS: ssRNA
VALUE TYPE: binding signal (fluorescence intensity)
Enter your answer as a number in fluorescence intensity; do not include the unit.

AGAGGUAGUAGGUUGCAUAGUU: 963

The recorded binding signal with RBMX (Homo sapiens, UniProt P38159) for `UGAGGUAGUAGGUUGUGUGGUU` was 721

Measured binding signal for this entry `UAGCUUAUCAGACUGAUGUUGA` on RBMX (Homo sapiens, UniProt P38159): 71.4

Reported RBMX (Homo sapiens, UniProt P38159) binding signal for item `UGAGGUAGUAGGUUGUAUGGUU` was 571

---

ASSAY TARGET: TIA1 (Homo sapiens)
Sequence: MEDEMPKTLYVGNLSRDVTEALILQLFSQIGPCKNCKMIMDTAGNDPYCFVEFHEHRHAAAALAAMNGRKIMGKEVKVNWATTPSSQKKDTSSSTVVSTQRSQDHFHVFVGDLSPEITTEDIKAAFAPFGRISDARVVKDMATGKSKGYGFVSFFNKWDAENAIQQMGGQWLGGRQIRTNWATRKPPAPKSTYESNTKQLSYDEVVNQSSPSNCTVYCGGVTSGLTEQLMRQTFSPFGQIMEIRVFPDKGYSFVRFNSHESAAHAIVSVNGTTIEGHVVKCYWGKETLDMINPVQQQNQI
ASSAY NOTES: protein domain microarray probed with biotinylated miRNA; Domain array: 20 mM Tris-HCl pH 7.4, 200 mM KCl, 0.2 mM EDTA, 0.05% NP40, 2 ug/ul heparin, overnight 4 C. ORF array: PBS pH 7.0 with RNase inhibitor, 100 ng RNA; high values mean tight binding
PROTOCOL CONDITIONS: ssRNA
VALUE TYPE: binding signal (fluorescence intensity)
Provide only the numeric value, understood in fluorescence intensity.

Worked set:
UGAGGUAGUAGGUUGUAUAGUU: 585
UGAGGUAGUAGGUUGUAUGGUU: 1030
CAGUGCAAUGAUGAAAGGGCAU: 538
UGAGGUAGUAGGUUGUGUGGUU: 871
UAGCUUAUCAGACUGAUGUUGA: 631

Shift focus to the following entry.
# binding signal of `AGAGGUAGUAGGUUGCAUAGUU` = 1240

---

ASSAY TARGET: RBMS2 (Homo sapiens, UniProt Q15434)
Sequence: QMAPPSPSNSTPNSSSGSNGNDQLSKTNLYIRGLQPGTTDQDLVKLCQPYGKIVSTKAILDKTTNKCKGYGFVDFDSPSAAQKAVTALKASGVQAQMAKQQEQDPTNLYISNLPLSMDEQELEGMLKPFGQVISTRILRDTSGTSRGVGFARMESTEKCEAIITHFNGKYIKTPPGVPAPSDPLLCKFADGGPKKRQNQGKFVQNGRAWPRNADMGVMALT
ASSAY NOTES: protein domain microarray probed with biotinylated miRNA; Domain array: 20 mM Tris-HCl pH 7.4, 200 mM KCl, 0.2 mM EDTA, 0.05% NP40, 2 ug/ul heparin, overnight 4 C. ORF array: PBS pH 7.0 with RNase inhibitor, 100 ng RNA; high values mean tight binding
PROTOCOL CONDITIONS: ssRNA
The sequences listed here are annotated with their binding signal.
// note: answer is a bare numeric in fluorescence intensity

Example entries and their recorded answers appear below.
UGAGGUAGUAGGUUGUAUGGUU: 91.7
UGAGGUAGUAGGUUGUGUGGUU: 95.1
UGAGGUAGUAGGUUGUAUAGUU: 24.7

For the next question, use this sequence.
The recorded binding signal for `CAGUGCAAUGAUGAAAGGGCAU` is 39

---

ASSAY TARGET: DDX9(2)/DHX9 (Homo sapiens, UniProt Q08211)
Sequence (Q08211 161-271): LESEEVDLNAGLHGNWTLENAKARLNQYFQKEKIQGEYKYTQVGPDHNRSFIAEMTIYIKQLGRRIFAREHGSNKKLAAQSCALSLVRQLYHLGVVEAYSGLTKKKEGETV
ASSAY NOTES: protein domain microarray probed with biotinylated miRNA; Domain array: 20 mM Tris-HCl pH 7.4, 200 mM KCl, 0.2 mM EDTA, 0.05% NP40, 2 ug/ul heparin, overnight 4 C. ORF array: PBS pH 7.0 with RNase inhibitor, 100 ng RNA; high values mean tight binding
PROTOCOL CONDITIONS: ssRNA
VALUE TYPE: binding signal

# annotated cases, reported binding signal shown
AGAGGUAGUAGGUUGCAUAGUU: 33 fluorescence intensity
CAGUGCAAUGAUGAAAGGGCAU: 26 fluorescence intensity
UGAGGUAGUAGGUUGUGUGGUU: 53.9 fluorescence intensity

Summary for this sequence, `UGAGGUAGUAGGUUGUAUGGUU` : binding signal is 44.6 fluorescence intensity

---

ASSAY TARGET: A2BP1 (Homo sapiens)
Sequence: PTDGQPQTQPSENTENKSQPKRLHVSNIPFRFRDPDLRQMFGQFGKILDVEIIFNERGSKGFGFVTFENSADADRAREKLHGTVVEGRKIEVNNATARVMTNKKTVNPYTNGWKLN
ASSAY NOTES: protein domain microarray probed with biotinylated miRNA; Domain array: 20 mM Tris-HCl pH 7.4, 200 mM KCl, 0.2 mM EDTA, 0.05% NP40, 2 ug/ul heparin, overnight 4 C. ORF array: PBS pH 7.0 with RNase inhibitor, 100 ng RNA; high values mean tight binding
PROTOCOL CONDITIONS: ssRNA
Lab note: compare binding signal against 3000 fluorescence intensity. Equal or greater, write Y. Smaller, write N.

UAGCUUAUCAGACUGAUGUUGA: N
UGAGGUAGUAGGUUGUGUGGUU: Y
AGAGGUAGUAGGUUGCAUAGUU: Y

Task: Could you verify whether the entry `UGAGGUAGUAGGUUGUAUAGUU` shows binding signal of no less than 3000 fluorescence intensity?
Result: N

---

ASSAY TARGET: VIGILIN(1-5) (Homo sapiens, UniProt Q00341)
Sequence (Q00341 138-534): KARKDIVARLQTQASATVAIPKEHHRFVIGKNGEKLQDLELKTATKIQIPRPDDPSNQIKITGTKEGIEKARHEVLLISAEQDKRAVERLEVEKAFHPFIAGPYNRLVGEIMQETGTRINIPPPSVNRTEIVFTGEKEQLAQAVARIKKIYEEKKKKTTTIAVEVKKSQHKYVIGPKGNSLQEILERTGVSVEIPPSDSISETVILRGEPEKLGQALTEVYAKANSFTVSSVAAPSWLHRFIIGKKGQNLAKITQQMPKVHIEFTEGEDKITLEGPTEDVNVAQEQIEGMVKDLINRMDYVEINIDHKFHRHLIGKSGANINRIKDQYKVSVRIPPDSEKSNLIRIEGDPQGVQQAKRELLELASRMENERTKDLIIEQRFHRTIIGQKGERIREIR
ASSAY NOTES: protein domain microarray probed with biotinylated miRNA; Domain array: 20 mM Tris-HCl pH 7.4, 200 mM KCl, 0.2 mM EDTA, 0.05% NP40, 2 ug/ul heparin, overnight 4 C. ORF array: PBS pH 7.0 with RNase inhibitor, 100 ng RNA; high values mean tight binding
PROTOCOL CONDITIONS: ssRNA
VALUE TYPE: binding signal (fluorescence intensity)
// return numeric value only (unit: fluorescence intensity, not printed)

Example entries begin here.
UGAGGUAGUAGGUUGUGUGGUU: 622
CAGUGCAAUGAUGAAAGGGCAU: 156
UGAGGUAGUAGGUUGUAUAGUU: 86.5
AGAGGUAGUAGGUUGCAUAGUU: 173

Short answer for `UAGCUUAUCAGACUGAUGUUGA` : binding signal was 20.4

---

ASSAY TARGET: RKHD4(1-2) (Homo sapiens, UniProt A1L020)
Sequence: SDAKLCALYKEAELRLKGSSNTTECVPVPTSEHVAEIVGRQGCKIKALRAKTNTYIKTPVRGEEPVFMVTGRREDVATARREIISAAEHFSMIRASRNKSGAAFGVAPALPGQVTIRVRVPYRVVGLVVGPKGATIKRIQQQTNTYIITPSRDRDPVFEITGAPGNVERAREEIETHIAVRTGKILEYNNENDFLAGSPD
ASSAY NOTES: protein domain microarray probed with biotinylated miRNA; Domain array: 20 mM Tris-HCl pH 7.4, 200 mM KCl, 0.2 mM EDTA, 0.05% NP40, 2 ug/ul heparin, overnight 4 C. ORF array: PBS pH 7.0 with RNase inhibitor, 100 ng RNA; high values mean tight binding
PROTOCOL CONDITIONS: ssRNA
VALUE TYPE: binding signal (fluorescence intensity)
Respond numerically; units are fluorescence intensity and should not be typed.

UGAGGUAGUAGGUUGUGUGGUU: 1430
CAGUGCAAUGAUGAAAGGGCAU: 1280
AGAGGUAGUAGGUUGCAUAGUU: 1980

GET /value?item= `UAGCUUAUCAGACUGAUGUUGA` &field=binding signal returns 932

Numbers sourced from paper PMC11574364.
